Experiment: Microdialysis (striatal dialysate and blood) in cynomolgus monkeys
Assay type: in vivo, cynomolgus monkey
Conditions: cynomolgus monkey, in vivo, 300 mg/kg, individual Cyno; Fosmetpantotentate 300 mg/kg PO; corrected for dilution; post-dose, time 2 hr; read-out: Fosmetpantotenate Dialysate Concentration

[
  {
    "COMPOUND": "COC(=O)CCNC(=O)[C@H](O)C(C)(C)COP(=O)(N[C@@H](C)C(=O)OC)Oc1ccccc1 (mixture of isomers) [Fosmetpantotenate]",
    "UNIT SPEC": "nM",
    "concentration at 2 h": 20
  }
]

---

Assay: Microdialysis (striatal dialysate and blood) in cynomolgus monkeys
Type: in vivo, cynomolgus monkey
Settings: cynomolgus monkey, in vivo; dialysate; fosmetpantotenate 300 mg/kg PO; mean (individual values); read-out: AUC

[
  {
    "COMPOUND": "COC(=O)CCNC(=O)[C@H](O)C(C)(C)COP(=O)(N[C@@H](C)C(=O)OC)Oc1ccccc1 (mixture of isomers) [Fosmetpantotenate]",
    "AUC, µM·h": 1.03
  }
]

---

Experiment: Pharmacokinetics in whole blood, CD-1 mice
Conditions: male, CD-1, mouse, whole blood, po, 700 mg/kg, Whole Blood Conc. of compound 2, CD-1 mice, single 700 mg/kg RE-024-02 PO, 0.333 hr, LLOQ 3 ng/mL

[
  {
    "SMILES INPUT": "COC(=O)CCNC(=O)[C@@H]1OP(=O)(O)OCC1(C)C",
    "concentration at 0.333 h [ng/mL]": 1910
  }
]

---

Assay: Pharmacokinetics in whole blood, CD-1 mice
Conditions: male, CD-1, mouse, whole blood, po, 100 mg/kg, Whole Blood Conc. of compound 2, CD-1 mice, single 100 mg/kg RE-024-02 PO, 4 hr, LLOQ 3 ng/mL

[
  {
    "COMPOUND": "COC(=O)CCNC(=O)[C@@H]1OP(=O)(O)OCC1(C)C [Compound 2]",
    "concentration at 4 h / ng/mL": 3.5
  }
]

---

Assay: Microdialysis (striatal dialysate and blood) in cynomolgus monkeys
Assay type: in vivo, cynomolgus monkey
Settings: cynomolgus, cynomolgus monkey, in vivo, po, 300 mg/kg, blood; fosmetpantotenate 300 mg/kg PO; mean (individual values); analyte = label; read-out: Cmax

[
  {
    "COMPOUND": "COC(=O)CCNC(=O)[C@H](O)C(C)(C)COP(=O)(N[C@@H](C)C(=O)OC)Oc1ccccc1 (mixture of isomers) [Fosmetpantotenate]",
    "Cmax": "6.04 µM"
  }
]

---

Test: Pharmacokinetics in whole blood, cynomolgus monkeys
Settings: male, cynomolgus monkey, in vivo, 300 mg/kg, Fosmetpantotenate blood concentration, Cyno #1, male cynomolgus monkeys, fosmetpantotenate 300 mg/kg oral, blood, 0.333 hr

[
  {
    "MOLECULE": "COC(=O)CCNC(=O)[C@H](O)C(C)(C)COP(=O)(N[C@@H](C)C(=O)OC)Oc1ccccc1 (mixture of isomers) [Fosmetpantotenate]",
    "concentration at 0.333 h / nM": 128
  }
]

---

Test: Pharmacokinetics in whole blood, cynomolgus monkeys
Settings: cynomolgus monkey, whole blood, po, 300 mg/kg, Concentration of compound 3 in whole blood, cynomolgus monkeys, single oral 300 mg/kg fosmetpantotenate, 4 hr, LLOQ 2.13 nM

[
  {
    "COMPOUND": "CC1(C)COP(=O)(O)O[C@H]1C(=O)NCCC(=O)O [Compound 3]",
    "concentration at 4 h / nM": 432
  }
]

---

Assay: Pharmacokinetics in whole blood, Sprague-Dawley rats
Settings: male, Sprague-Dawley, rat, in vivo, 300 mg/kg, Fosmetpantotenate Mean Conc., male Sprague-Dawley rats, fosmetpantotenate 300 mg/kg oral, blood, 0.033 hr, mean, BQL <1.26 nM

[
  {
    "COMPOUND": "COC(=O)CCNC(=O)[C@H](O)C(C)(C)COP(=O)(N[C@@H](C)C(=O)OC)Oc1ccccc1 (mixture of isomers) [Fosmetpantotenate]",
    "concentration at 0.033 h (nM)": 4.03
  }
]

---

Test: in vivo
Conditions: male, C57Bl6, mouse, po, 700 mg/kg, total PA Cmax
PROPERTY NAME: Cmax (nM)

[
  {
    "MOLECULE": "CC(C)(CO)[C@@H](O)C(=O)NCCC(=O)O [PA, pantothenate]",
    "VAL": 130
  }
]

---

Assay: Microdialysis (brain striatal dialysate) in C57Bl6 mice
Settings: male, C57Bl6, mouse, striatal dialysate (brain microdialysate), other: direct infusion into the striatum via cannula, 125 µg per animal

[
  {
    "COMPOUND": "COC(=O)CCNC(=O)[C@H](O)C(C)(C)COP(=O)(N[C@@H](C)C(=O)OC)Oc1ccccc1 (mixture of isomers) [Fosmetpantotenate]",
    "UNIT SPEC": "µM",
    "concentration at 2.5 h": 4.98
  }
]

---

Experiment: Pharmacokinetics in whole blood, cynomolgus monkeys
Conditions: male, cynomolgus monkey, in vivo, 300 mg/kg, Fosmetpantotenate blood concentration, Cyno #2, male cynomolgus monkeys, fosmetpantotenate 300 mg/kg oral, blood, 2 hr

[
  {
    "COMPOUND": "COC(=O)CCNC(=O)[C@H](O)C(C)(C)COP(=O)(N[C@@H](C)C(=O)OC)Oc1ccccc1 (mixture of isomers) [Fosmetpantotenate]",
    "concentration at 2 h / µM": 22.9
  }
]

---

Experiment: Pharmacokinetics in whole blood, CD-1 mice
Settings: male, CD-1, mouse, in vivo, po, 700 mg/kg, Compound 1 Whole Blood Conc., CD-1 mice, 700 mg/kg RE-024-02 by PO, 0.333 hr, individual animals, LLOQ 1.6 nM

[
  {
    "COMPOUND": "COC(=O)CCNC(=O)[C@@H]1OP(=O)(N[C@@H](C)C(=O)OC)OCC1(C)C (stereo partly shown) [Compound 1]",
    "concentration at 0.333 h": "286 nM"
  }
]

---

Assay: Pharmacokinetics in whole blood, CD-1 mice
Settings: male, CD-1, mouse, whole blood, po, 700 mg/kg, Whole Blood Conc. of compound 2, CD-1 mice, single 700 mg/kg RE-024-02 PO, 1 hr, LLOQ 3 ng/mL

[
  {
    "COMPOUND": "COC(=O)CCNC(=O)[C@@H]1OP(=O)(O)OCC1(C)C [Compound 2]",
    "concentration at 1 h (ng/mL)": 541
  }
]

---

Assay: Microdialysis (striatal dialysate and blood) in cynomolgus monkeys
Assay type: in vivo, cynomolgus monkey
Settings: cynomolgus monkey, in vivo, po, 300 mg/kg, dialysate; fosmetpantotenate 300 mg/kg PO; mean (individual values); read-out: Cmax
PROPERTY NAME: Cmax (nM)

[
  {
    "COMPOUND": "COC(=O)CCNC(=O)[C@H](O)C(C)(C)COP(=O)(N[C@@H](C)C(=O)OC)Oc1ccccc1 (mixture of isomers) [Fosmetpantotenate]",
    "VAL": 1560
  }
]

---

Assay: Pharmacokinetics in whole blood, CD-1 mice
Details: male, CD-1, mouse, in vivo, po, 700 mg/kg, Compound 1 Whole Blood Conc., CD-1 mice, 700 mg/kg RE-024-02 by PO, 4 hr, individual animals, LLOQ 1.6 nM
PROPERTY NAME: concentration at 4 h

[
  {
    "MOLECULE": "COC(=O)CCNC(=O)[C@@H]1OP(=O)(N[C@@H](C)C(=O)OC)OCC1(C)C (stereo partly shown)",
    "PROPERTY NAME": "concentration at 4 h",
    "VAL": "2.1 nM"
  }
]

---

Test: Pharmacokinetics in whole blood, Sprague-Dawley rats
Conditions: male, Sprague-Dawley, rat, in vivo, 700 mg/kg, Fosmetpantotenate Mean Conc., male Sprague-Dawley rats, fosmetpantotenate 700 mg/kg oral, blood, 4 hr, mean, BQL <1.26 nM
PROPERTY NAME: concentration at 4 h (nM)

[
  {
    "COMPOUND": "COC(=O)CCNC(=O)[C@H](O)C(C)(C)COP(=O)(N[C@@H](C)C(=O)OC)Oc1ccccc1 (mixture of isomers) [Fosmetpantotenate]",
    "PROPERTY NAME": "concentration at 4 h",
    "VAL": 226
  }
]

---

Assay: Pharmacokinetics in whole blood, Sprague-Dawley rats
Settings: male, Sprague-Dawley, rat, in vivo, 300 mg/kg, Fosmetpantotenate Conc., male Sprague-Dawley rats, fosmetpantotenate 300 mg/kg oral, blood, 2 hr, individual animals, BQL <1.26 nM

[
  {
    "COMPOUND": "COC(=O)CCNC(=O)[C@H](O)C(C)(C)COP(=O)(N[C@@H](C)C(=O)OC)Oc1ccccc1 (mixture of isomers) [Fosmetpantotenate]",
    "UNIT SPEC": "nM",
    "concentration at 2 h": 3.41
  }
]

---

Experiment: Pharmacokinetics in whole blood, Sprague-Dawley rats
Details: male, Sprague-Dawley, rat, in vivo, 300 mg/kg, Fosmetpantotenate Conc., male Sprague-Dawley rats, fosmetpantotenate 300 mg/kg oral, blood, 1 hr, individual animals, BQL <1.26 nM
PROPERTY NAME: concentration at 1 h (nM)

[
  {
    "MOLECULE": "COC(=O)CCNC(=O)[C@H](O)C(C)(C)COP(=O)(N[C@@H](C)C(=O)OC)Oc1ccccc1 (mixture of isomers) [Fosmetpantotenate]",
    "PROPERTY NAME": "concentration at 1 h",
    "VAL": 6.98
  }
]
